Data origin, for the record: PubChem BioAssay

# systemName: Epidermal growth factor receptor (Homo sapiens) (UniProt P00533)
# Sequence (P00533 whole entry, looked up): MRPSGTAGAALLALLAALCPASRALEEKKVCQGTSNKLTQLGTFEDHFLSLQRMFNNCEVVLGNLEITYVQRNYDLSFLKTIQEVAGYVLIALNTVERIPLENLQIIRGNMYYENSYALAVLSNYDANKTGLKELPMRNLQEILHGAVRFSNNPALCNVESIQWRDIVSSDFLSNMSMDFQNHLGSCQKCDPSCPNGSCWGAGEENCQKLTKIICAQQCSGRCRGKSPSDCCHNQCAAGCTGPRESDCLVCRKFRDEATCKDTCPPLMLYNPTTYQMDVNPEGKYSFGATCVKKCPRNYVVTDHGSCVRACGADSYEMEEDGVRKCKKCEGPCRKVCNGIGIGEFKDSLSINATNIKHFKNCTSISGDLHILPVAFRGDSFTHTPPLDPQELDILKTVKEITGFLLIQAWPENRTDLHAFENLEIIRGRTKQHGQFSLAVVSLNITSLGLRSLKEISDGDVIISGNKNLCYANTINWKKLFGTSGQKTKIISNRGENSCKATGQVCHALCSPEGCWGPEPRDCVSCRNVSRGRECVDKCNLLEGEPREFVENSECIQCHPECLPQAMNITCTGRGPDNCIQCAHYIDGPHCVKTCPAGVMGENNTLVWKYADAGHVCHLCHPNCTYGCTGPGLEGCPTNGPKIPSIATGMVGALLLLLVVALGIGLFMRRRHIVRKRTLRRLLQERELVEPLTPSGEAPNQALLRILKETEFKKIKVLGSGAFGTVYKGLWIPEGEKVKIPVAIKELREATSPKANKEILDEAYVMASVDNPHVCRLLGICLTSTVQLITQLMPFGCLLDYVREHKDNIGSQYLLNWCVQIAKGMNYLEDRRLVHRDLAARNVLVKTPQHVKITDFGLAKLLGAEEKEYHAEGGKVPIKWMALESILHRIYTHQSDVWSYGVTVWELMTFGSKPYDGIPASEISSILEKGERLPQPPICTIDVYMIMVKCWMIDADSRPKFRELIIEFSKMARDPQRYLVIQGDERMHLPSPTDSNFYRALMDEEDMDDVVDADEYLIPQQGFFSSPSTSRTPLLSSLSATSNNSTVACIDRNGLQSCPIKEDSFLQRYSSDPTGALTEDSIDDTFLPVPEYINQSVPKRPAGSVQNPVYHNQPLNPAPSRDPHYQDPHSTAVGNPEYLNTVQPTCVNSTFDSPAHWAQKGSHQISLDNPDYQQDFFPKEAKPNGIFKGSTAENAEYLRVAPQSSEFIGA
# protocolText: compounds binding epidermal growth factor receptor – biochemical, small-molecule microarray, 635 nm fluorescence, primary screen (AID 1104);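 further: score merges 667 nm emission intensity with spot signal to noise over triplicate slides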
# conditionContext: EGFR binding, higher = more signal
Some molecules, each annotated with its measured composite z-score.
measuredAttribute: composite z-score

> print(dat)
                                   molecule  result
1  CN1C(=O)C2C=CC(C(O)c3cccn3C)N(Nc3ccc([N+](=O)[O-])cc3[N+](=O)[O-])C2C1=O (stereo not given)  -0.157
2  O=C1OCCC=C[C@H]2OC34C=CCN(Cn5nnc6ccccc65)C(=O)[C@H]3N(CCCO)C(=O)[C@@H]4C12 (stereo not given in full)   -0.72
3  CCOc1cc(C(O)C2C=CC3C(=O)NC(=O)C3N2Nc2ccc(Cl)cc2Cl)ccc1O (stereo not given)  -0.238
4                   CCOC(=O)C=Cc1cccc(C)c1O   0.069
5  CC1=C2[C@@H](CCc3ccccc3)OB(O)C[C@@H]2[C@@H]2C(=O)N(C)C(=O)[C@@H]2C1   0.135

* * *

# protocolText: blood-stage malaria parasite viability loss – strain 3D7, DAPI fluorescence, 100 nL, primary screen (AID 1184);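 further: parasites grown inside human red blood cells in medium with human serum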
# conditionContext: P. falciparum 3D7 growth, 3 d, higher = more signal
Returns one of yes (1) or no (0); yes (1) when z-score is >= -1.

molecule	discreteLabel
C=C[C@@H](OC)[C@H](OC(=O)Nc1ccc(OC)cc1)c1ccc(O)c(F)c1	yes (1)
C=CCC(OC(C)=O)[C@@H]1[C@@H](N(Cc2cccc3ccccc23)C(=O)Cc2ccc(OC)cc2)c2cc(OCCCO)ccc2N1C(=O)c1ccc(-c2ccccc2)cc1 (stereo partly drawn)	no (0)
COc1cc(NN2C(C(O)c3cc(OC)c(OC)c(OC)c3)C=CC3C(=O)N(C)C(=O)C32)cc(OC)c1OC (stereo not drawn)	yes (1)
CN(C)C(=O)[C@@]1(Cc2ccccc2)N=C(c2ccc(OCCCO)cc2)O[C@H]1c1ccccc1	no (0)
O=C1O[C@H](c2ccccc2)[C@H](c2ccccc2)N2[C@H]1[C@@H](C(=O)O)[C@]1(C(=O)Nc3ccc(C#CCCO)cc31)[C@H]2c1ccccc1OCCO	no (0)
Cc1ccc(S[C@]2(C(=O)NCc3ccccc3)CC(=O)N(C3CCCCC3)[C@@H]2c2ccc(CO)cc2I)cc1	no (0)
CCCCN1CC=CC23O[C@@H]4/C=C\CCCOC(=O)C4[C@H]2C(=O)N(CCO)[C@@H]3C1=O (stereo partly drawn)	no (0)

* * *

# systemName: Left-right determination factor 2 (Homo sapiens)
# protocolText: small molecules binding LEFTY2 protein – biochemical, small-molecule microarray, 635 nm fluorescence scan, primary screen (AID 1110)
# conditionContext: higher = more signal

compound	composite z-score
CCCC=C(CCC)[C@@H](NC(=O)C(C)(C)C)c1ccc(C(=O)OC)cc1	-0.494
CC(C)(C)OC(=O)COc1cccc(C(=O)CCN2CCOCC2)c1	0.0527
CC(C)[Si](C#C[Si](C(C)C)(C(C)C)C(C)C)(O[C@H](c1ccccc1)c1cn(Cc2ccccc2)nn1)C(C)C	0.637
C=CCNC(=O)[C@@H]1[C@H]2C(=O)O[C@H](c3ccccc3)[C@H](c3ccccc3)N2[C@H](c2ccccc2OCCO)[C@@]12C(=O)N(C(=O)OCCOC)c1ccc(C#CC3(O)CCCCCC3)cc12	0.694
CCCCCC1=C2CNC(C)(C(=O)OC)C=C2C(C)C1=O (stereo not given)	-0.37
O=c1cccc(-c2ccc([N+](=O)[O-])cc2)o1	0.37
C=CCOC(=O)[C@@]1(Cc2ccccc2)C[C@H]2CO[C@H](c3ccc(OC)cc3)N2C1=O	0.283
C=CCC(OC(C)=O)[C@@H]1[C@@H](N(Cc2ccc(-c3ccccc3)cc2)C(=O)c2ccc(-c3ccccc3)cc2)c2cc(OCCCO)ccc2N1C(=O)c1ccc2ccccc2c1 (stereo not given in full)	-0.0379
C=CCOC(=O)[C@@H]1[C@H]2C(=O)O[C@H](c3ccccc3)[C@H](c3ccccc3)N2[C@H](c2ccc(OCCOC(=O)[C@@H]3C[C@@H]4C(=O)N[C@@H](CCCC[N+](C)(C)C)C(=O)N4[C@@H]3c3ccc(O)cc3)cc2)[C@@]12C(=O)Nc1ccc(I)cc12	0.459
CC(C)N1C(=O)c2ccccc2[C@@H](C(=O)NCCN2CCOCC2)[C@@H]1c1ccc(CO)cc1	-2.07
C=CC[C@@H](OC(=O)Nc1ccc(OC)cc1)c1ccc(O)c(F)c1	-0.784
CC(C)NC(=O)[C@@]1(C)c2ccccc2C(=O)N(Cc2ccc(OC(F)(F)F)cc2)[C@H]1c1ccc(CO)cc1	-1.49
COC(=O)[C@]1(CCS(=O)(=O)c2ccccc2)N=C(c2ccc(OCCCO)cc2)O[C@@H]1c1ccccc1N=[N+]=[N-]	0.744
N[C@@H](Cc1ccccc1)C(=O)NCc1cn(Cc2ccccc2)nn1	0.167
COCCOC(=O)N1C(=O)[C@@]2(c3cc(C#CC4(O)CCCCCC4)ccc31)[C@H](C(=O)Nc1nc3ccccc3s1)[C@H]1C(=O)O[C@H](c3ccccc3)[C@H](c3ccccc3)N1[C@@H]2c1ccc(O)cc1	1
